FYI, the data here is from a melting point compilation (Tetko et al.; mined from patent text by program, amines drawn as free bases though some values may be those of a salt).

Consider the following compounds and their measured melting point readings.

Recorded results for 3 compounds are shown here.
COMPOUND | melting point
COc1ccc(N2C(=O)c3ccc(Cl)cc3C2CC(=O)O)cc1 (stereo unspecified) | 250 to 251 °C
CS(=O)(=O)c1ccc(-c2cc(C(CCCO[N+](=O)[O-])=NO)nn2C2CCCCC2)cc1 | 121 to 123 °C
COc1cc2c(cc1OC)CN(CCc1ccc(N)cc1)C2 | 150 °C

Entry `COc1cc(Br)c(C(=O)c2ccccc2)cc1OC` — recorded melting point = 71 to 72 °C

###

MEASUREMENT_KIND: melting point

COMPOUND | melting point
CN1CC2CC(=O)NC3C=CC=C4Cc5ccccc5C(C1)C2N43 (stereo unspecified) | 165 to 168 °C

Entry `Cc1onc(-c2ccccc2Cl)c1CCC(=O)O` — recorded melting point = 79 to 81 °C

Entry O=C(c1ccc(Cl)cc1)C(Cn1cncn1)c1ccc(Cl)cc1 (stereo unspecified) — recorded melting point = 126 to 128 °C

Entry `COC(=O)COc1ccc2c(O)c(C(C)=O)ccc2c1` — recorded melting point = 118 to 120 °C

Entry Cc1ccc(S(=O)(=O)OCC2OC(n3ccc(=O)[nH]c3=O)CC2O)cc1 (stereo unspecified) — recorded melting point = 162 °C

Entry `NC(=NN=Cc1c(Cl)cccc1Cl)Nc1c(Cl)cccc1Cl` — recorded melting point = 230 to 231 °C

Entry `COc1cc(OC)cc(N2CCN(C(=O)N(C)c3nc(C)c(C)nc3OC)CC2)c1` — recorded melting point = 80 to 82 °C

Entry `COc1cc(Nc2c(C#N)cnc3cc4cc(OCCCCl)c(OC)cc4cc23)c(Cl)cc1Cl` — recorded melting point = 220 to 223 °C

Entry `COc1cc(OC)c(-c2cc3ccccc3n2C)cc1C=CC(=O)c1ccc(S(=O)(=O)Nc2cc(C)on2)cc1` — recorded melting point = 220 °C

Entry OC(c1ccccc1)C1CCCN1 (stereo unspecified) — recorded melting point = 110 °C

###

Consider the following compounds and their measured melting point readings.

Recorded results for 8 compounds are shown here.
COMPOUND | MEASUREMENT_KIND | RESULT
Cc1ccc2c(N)nc(-c3cccc4ccccc34)cc2c1 | melting point | 170 °C
C1=Cn2cnnc2Cc2ccsc21 | melting point | 146 °C
CCN(CC)CC/C=C/c1cc2ncc(C#N)c(Nc3ccc(Sc4nccn4C)c(Cl)c3)c2cc1OC | melting point | 194 to 202 °C
CCCC(C)(c1ccc(F)cc1)c1cc(O)c2c3c(c(=O)oc2c1)CCC3 (stereo unspecified) | melting point | 133 to 135 °C
COC(=O)CCCCCCC(=O)Nc1ccc(C(=O)NN=C2C(=O)Nc3ccc(I)cc32)cc1 | melting point | 268 °C
O=C1C2=C(NC(=O)C3(N2)OCCO3)c2ccccc21 | melting point | 296 to 301 °C
Cn1nc(N)nc1NCCCOc1cccc(CNCc2ccccc2)c1 | melting point | 90 to 91 °C
O=c1c(-c2cccs2)nc2ccccc2n1CC1CCCO1 (stereo unspecified) | melting point | 123 °C

Entry `CN1CCC(Nc2ccccc2OCc2ccccc2)CC1` — recorded melting point = 90 to 95 °C

Entry `Cc1cc(Oc2c(Cl)cc(C(F)(F)F)cc2Cl)ccc1S(=O)(=O)C(F)(F)F` — recorded melting point = 121 to 122 °C

Entry `CCOC(=O)c1c(C)nn(-c2ccccc2[N+](=O)[O-])c1C` — recorded melting point = 128 to 130 °C

Entry `COc1ccc(-c2nn(C3CCCC3)c3c(C(F)(F)F)cccc23)c(OC)c1` — recorded melting point = 79 to 80 °C

Entry `CC(=O)c1cc(Cl)c(OCCOc2ccc3ccccc3c2)c(Cl)c1` — recorded melting point = 110 to 111 °C

Entry `COC(=O)CCC(=O)c1ccc(-c2ccc(Br)cc2F)cc1` — recorded melting point = 94 to 95 °C

Entry `CSCC(=O)[C@H](Cc1cccs1)NC(=O)[C@H](CC(C)C)NC(=O)OCc1ccccc1` — recorded melting point = 93 to 97 °C

Entry `COc1ccc(S(=O)(=O)N2CCc3cccc(-c4ccc(C(F)(F)F)cc4)c32)cc1` — recorded melting point = 180 to 181 °C

Entry `CCCCC(=N)OCC` — recorded melting point = 89 to 91 °C

Entry `c1cn(CCCOc2ccc(-c3noc(C4CC4)n3)cc2)cn1` — recorded melting point = 98 to 100 °C

Entry `CN1CCN(c2cc(Cl)cc3c2c(=O)n(Cc2ccccc2Br)c(=O)n3Cc2ccccc2)CC1` — recorded melting point = 91 to 93 °C

Entry CCOC(=O)C1=C(C)NC(C(OC)OC)=C(C(=O)OC)C1c1ccccc1[N+](=O)[O-] (stereo unspecified) — recorded melting point = 122 to 124 °C

Entry `Cc1cc(-c2ccccc2)n2nc(SCc3ccccc3)nc2n1` — recorded melting point = 110 to 111 °C
